Cited source for all entries: paper PMC9460781

Biological target: pancreatic lipase type II (PL) from porcine pancreas (Sus scrofa, UniProt P00591)
Sequence (P00591 1-450): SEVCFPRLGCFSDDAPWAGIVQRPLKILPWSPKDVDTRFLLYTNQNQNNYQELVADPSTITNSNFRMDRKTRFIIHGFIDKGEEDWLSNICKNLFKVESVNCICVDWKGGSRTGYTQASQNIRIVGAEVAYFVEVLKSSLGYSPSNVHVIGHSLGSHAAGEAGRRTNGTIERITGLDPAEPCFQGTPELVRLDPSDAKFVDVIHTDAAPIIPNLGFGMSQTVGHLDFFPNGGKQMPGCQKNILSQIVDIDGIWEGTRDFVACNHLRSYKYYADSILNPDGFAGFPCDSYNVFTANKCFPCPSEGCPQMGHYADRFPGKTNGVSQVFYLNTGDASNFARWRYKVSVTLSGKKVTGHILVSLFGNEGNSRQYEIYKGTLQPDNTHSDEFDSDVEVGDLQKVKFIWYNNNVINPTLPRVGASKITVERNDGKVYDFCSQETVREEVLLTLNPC
Exercise: for every item that follows, state its recorded IC50.
One number for each entry, in µM.

Some entries whose results are on file:
CC(C)=CCC/C(C)=C\C(=O)c1cc(C(=O)O)cc(CC=C(C)C)c1O [Compound 2, (2′Z) cumenic acid]	36.2
CCCCC1(O)CC(C)(C)Oc2ccccc21 (stereo not shown) [Compound 6, 4-Butyl-2,2-dimethyl-chroman-4-ol]	28.3
CC(C)=CCCC(C)=CC(O)c1ccc2c(c1)C=CC(C)(C)O2 (stereo not shown) [Compound 7]	33.1

Turning now to a further molecule:
Given the molecule CC(C)=CCC/C(C)=C/C(=O)c1cc(C(=O)O)cc(CC=C(C)C)c1O [Compound 1, (2′E) cumenic acid] , what is its reported IC50?
33.8

====

Molecular target: pancreatic lipase type II (PL) from porcine pancreas (Sus scrofa)
Construct: purchased Sigma-Aldrich L-SLBD2433V (printed); host or cells: porcine pancreas
Sequence (P00591 1-450): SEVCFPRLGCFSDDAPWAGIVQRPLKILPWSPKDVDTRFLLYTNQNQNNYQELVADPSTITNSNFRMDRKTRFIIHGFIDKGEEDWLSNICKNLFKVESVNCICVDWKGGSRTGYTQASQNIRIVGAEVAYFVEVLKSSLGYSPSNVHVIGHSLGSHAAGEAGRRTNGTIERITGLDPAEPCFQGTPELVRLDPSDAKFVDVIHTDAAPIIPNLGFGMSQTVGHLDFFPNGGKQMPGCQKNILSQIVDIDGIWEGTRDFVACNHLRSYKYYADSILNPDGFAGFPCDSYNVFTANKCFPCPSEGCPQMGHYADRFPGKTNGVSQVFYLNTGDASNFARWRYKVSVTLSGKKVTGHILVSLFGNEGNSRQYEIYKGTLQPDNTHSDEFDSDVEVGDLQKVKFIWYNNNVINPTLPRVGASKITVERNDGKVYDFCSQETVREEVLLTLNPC
Assay: Kinetic study on PL (Ki, type of inhibition)
Format: biochemical
Settings: Lineweaver–Burk; abbreviated UC, C, NC, M in Table S1
MEASURED ATTRIBUTE: Pancreatic Lipase Inhibition Type

Here are 4 molecules together with their reported answers.
CC(C)=CCCC(C)=CC(O)c1ccc2c(c1)C=CC(C)(C)O2 (stereo not drawn)	Competitive
CCCCC1(O)CC(C)(C)Oc2ccccc21 (stereo not drawn)	Noncompetitive
CC(C)=CC(=O)c1ccccc1O	Noncompetitive
COC(=O)c1cc(CC=C(C)C)c(O)c(C(=O)C=C(C)CCC=C(C)C)c1	Mixed

Now consider a different molecule.
Name the recorded Pancreatic Lipase Inhibition Type for CC(C)=CCCC1(C)C=Cc2cc(C(=O)O)cc(CC=C(C)C)c2O1 (stereo not drawn) .
Competitive

====

Molecular target: pancreatic lipase type II (PL) from porcine pancreas (Sus scrofa, UniProt P00591)
Sequence (P00591 1-450): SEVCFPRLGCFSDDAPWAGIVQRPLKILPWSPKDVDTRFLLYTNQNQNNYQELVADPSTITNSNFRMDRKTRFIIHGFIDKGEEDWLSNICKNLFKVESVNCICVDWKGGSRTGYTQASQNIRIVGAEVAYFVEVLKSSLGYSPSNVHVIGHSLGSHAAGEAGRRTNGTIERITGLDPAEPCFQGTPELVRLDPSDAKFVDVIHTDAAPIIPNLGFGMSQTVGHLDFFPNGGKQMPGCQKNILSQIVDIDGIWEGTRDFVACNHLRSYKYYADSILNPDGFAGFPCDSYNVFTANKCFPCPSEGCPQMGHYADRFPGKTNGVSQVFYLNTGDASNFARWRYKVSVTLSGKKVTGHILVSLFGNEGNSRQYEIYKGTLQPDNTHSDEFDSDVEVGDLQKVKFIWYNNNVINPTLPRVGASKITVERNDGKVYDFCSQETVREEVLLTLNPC
MEASURED ATTRIBUTE: pKi
Give bare numbers, as −log10 of the molar value.

# count of solved cases: 4
CC(C)=CCCC(C)=CC(O)c1ccc2c(c1)C=CC(C)(C)O2 (stereo not drawn)	4.60
CCCCC1(O)CC(C)(C)Oc2ccccc21 (stereo not drawn)	4.55
COC(=O)c1cc(CC=C(C)C)c(O)c(C(=O)C=C(C)CCC=C(C)C)c1	4.37
CC(C)=CCC/C(C)=C\C(=O)c1cc(C(=O)O)cc(CC=C(C)C)c1O	5.07

For each listed entry, give its pKi.
1. CC(C)=CCC/C(C)=C/C(=O)c1cc(C(=O)O)cc(CC=C(C)C)c1O
2. CC(C)=CCCC1(C)C=Cc2cc(C(=O)O)cc(CC=C(C)C)c2O1 (stereo not drawn)

1. 5.10
2. 4.74

====

Provide the reported pKi of each item.
Target: α-glucosidase (AG) type I from Saccharomyces cerevisiae (Saccharomyces cerevisiae)
Construct: purchased Sigma-Aldrich L-SLBX6245 (printed); host or cells: Saccharomyces cerevisiae
Sequence (P53341 whole entry): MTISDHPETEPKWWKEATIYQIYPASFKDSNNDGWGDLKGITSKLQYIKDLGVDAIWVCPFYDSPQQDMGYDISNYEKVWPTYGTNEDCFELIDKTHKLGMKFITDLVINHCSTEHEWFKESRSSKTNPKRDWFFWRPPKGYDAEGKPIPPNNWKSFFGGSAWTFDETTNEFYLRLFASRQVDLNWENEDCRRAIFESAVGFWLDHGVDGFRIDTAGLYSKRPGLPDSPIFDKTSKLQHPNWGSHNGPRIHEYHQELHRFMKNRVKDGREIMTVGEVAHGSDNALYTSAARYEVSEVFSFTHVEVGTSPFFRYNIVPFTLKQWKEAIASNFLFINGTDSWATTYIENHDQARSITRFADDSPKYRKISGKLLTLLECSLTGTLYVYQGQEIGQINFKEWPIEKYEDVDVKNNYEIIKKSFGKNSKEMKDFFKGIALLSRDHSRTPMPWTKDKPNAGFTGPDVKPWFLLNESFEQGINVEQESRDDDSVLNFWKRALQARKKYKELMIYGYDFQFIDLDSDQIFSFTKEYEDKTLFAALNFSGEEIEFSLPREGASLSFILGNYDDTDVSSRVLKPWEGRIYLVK
Experiment: Kinetic study on AG (Ki, type of inhibition)
Assay type: biochemical
Settings: nonlinear regression of enzyme inhibition kinetics
Give bare numbers, as −log10 of the molar value.

CC(C)=CCCC(C)=CC(O)c1ccc2c(c1)C=CC(C)(C)O2 (centres unmarked)	3.87

Name the reported pKi value associated with the compound CCCCC1(O)CC(C)(C)Oc2ccccc21 (centres unmarked)
4.29
